target: 5-HT2C receptor (Homo sapiens); construct: host or cells: HEK293; assay: FLIPR Ca2+ flux functional assay, agonist activity at 5-HT2C; assay type: cell-based; conditions: HEK293 cells, Ca2+ flux
Sequence (P28335 33-458): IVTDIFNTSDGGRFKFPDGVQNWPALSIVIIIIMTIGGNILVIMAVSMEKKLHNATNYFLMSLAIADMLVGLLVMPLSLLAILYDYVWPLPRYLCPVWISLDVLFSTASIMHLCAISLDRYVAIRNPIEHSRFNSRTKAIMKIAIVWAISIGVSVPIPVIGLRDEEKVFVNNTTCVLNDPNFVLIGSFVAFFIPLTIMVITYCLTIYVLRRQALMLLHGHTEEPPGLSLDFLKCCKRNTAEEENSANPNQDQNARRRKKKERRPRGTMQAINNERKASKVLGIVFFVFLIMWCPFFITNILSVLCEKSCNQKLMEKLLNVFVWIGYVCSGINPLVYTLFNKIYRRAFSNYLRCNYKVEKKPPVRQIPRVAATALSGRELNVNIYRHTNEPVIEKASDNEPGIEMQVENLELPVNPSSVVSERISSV
Threshold check on Emax: at or above 20% gives criterion met, strictly below gives criterion not met.

**Query** Textbook exercise: given the entry COc1ccc2[nH]cc(CCN(C(C)C)C(C)C)c2n1 , state whether its Emax is greater than or equal to 20%.
**Result** criterion met

**Query** Textbook exercise: given the entry COc1nccc2[nH]cc(CCN(C(C)C)C(C)C)c12 , state whether its Emax is greater than or equal to 20%.
**Result** criterion met

**Query** Textbook exercise: given the entry CCN(C)CCc1c[nH]c2nccc(C)c12 , state whether its Emax is greater than or equal to 20%.
**Result** criterion not met

**Query** Textbook exercise: given the entry COc1ccc2[nH]cc(CCN(C)C)c2n1 , state whether its Emax is greater than or equal to 20%.
**Result** criterion met

**Query** Textbook exercise: given the entry Cc1cnc2[nH]cc(CCN(C)C)c2c1 , state whether its Emax is greater than or equal to 20%.
**Result** criterion not met

**Query** Textbook exercise: given the entry CCN(C)CCc1c[nH]c2ccnc(OC)c12 , state whether its Emax is greater than or equal to 20%.
**Result** criterion met

**Query** Textbook exercise: given the entry COc1nccc2[nH]cc(CCN(C)C(C)C)c12 , state whether its Emax is greater than or equal to 20%.
**Result** criterion met

**Query** Textbook exercise: given the entry COc1cnc2[nH]cc(CCN(C(C)C)C(C)C)c2c1 , state whether its Emax is greater than or equal to 20%.
**Result** criterion not met

**Query** Textbook exercise: given the entry CCN(CC)CCc1c[nH]c2nccc(OC)c12 , state whether its Emax is greater than or equal to 20%.
**Result** criterion not met

**Query** Textbook exercise: given the entry COc1ccnc2[nH]cc(CCN(C(C)C)C(C)C)c12 , state whether its Emax is greater than or equal to 20%.
**Result** criterion not met

**Query** Textbook exercise: given the entry COc1ccc2[nH]cc(CCN(C)C(C)C)c2n1 , state whether its Emax is greater than or equal to 20%.
**Result** criterion met

**Query** Textbook exercise: given the entry CCN(CC)CCc1c[nH]c2ccnc(OC)c12 , state whether its Emax is greater than or equal to 20%.
**Result** criterion met

**Query** Textbook exercise: given the entry COc1cnc2[nH]cc(CCN(C)C(C)C)c2c1 , state whether its Emax is greater than or equal to 20%.
**Result** criterion not met

**Query** Textbook exercise: given the entry CN(C)CCc1c[nH]c2ncc(F)cc12 , state whether its Emax is greater than or equal to 20%.
**Result** criterion met

**Query** Textbook exercise: given the entry COc1ccnc2[nH]cc(CCN(C)C)c12 , state whether its Emax is greater than or equal to 20%.
**Result** criterion not met

**Query** Textbook exercise: given the entry COc1ccc2onc(CCN(C)C)c2c1 , state whether its Emax is greater than or equal to 20%.
**Result** criterion not met

**Query** Textbook exercise: given the entry CCN(C)CCc1c[nH]c2ccc(OC)nc12 , state whether its Emax is greater than or equal to 20%.
**Result** criterion met

**Query** Textbook exercise: given the entry CCCN(CCC)CCc1c[nH]c2ccnc(OC)c12 , state whether its Emax is greater than or equal to 20%.
**Result** criterion met

**Query** Textbook exercise: given the entry CCN(C)CCc1c[nH]c2ncc(OC)cc12 , state whether its Emax is greater than or equal to 20%.
**Result** criterion not met

**Query** Textbook exercise: given the entry Cc1ccnc2[nH]cc(CCN(C)C)c12 , state whether its Emax is greater than or equal to 20%.
**Result** criterion not met

**Query** Textbook exercise: given the entry CCN(C)CCc1c[nH]c2nccc(OC)c12 , state whether its Emax is greater than or equal to 20%.
**Result** criterion not met

Data provenance is patent US20250163044A1.
